Data provenance: a collection of fitness landscapes (doi:10.1016/j.celrep.2020.107928)

B1: Caulobacter ParB omega fusion; a variant is named by its letters at X, in order, B8GW30 (parent)
chain: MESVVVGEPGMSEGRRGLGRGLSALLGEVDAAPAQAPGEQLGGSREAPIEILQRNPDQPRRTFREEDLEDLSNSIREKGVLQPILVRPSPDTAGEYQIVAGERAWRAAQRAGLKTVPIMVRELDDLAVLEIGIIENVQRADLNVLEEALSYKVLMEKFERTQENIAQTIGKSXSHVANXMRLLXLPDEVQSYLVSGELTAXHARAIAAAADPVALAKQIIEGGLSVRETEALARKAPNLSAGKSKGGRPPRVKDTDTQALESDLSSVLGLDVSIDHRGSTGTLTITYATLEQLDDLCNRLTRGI

# Variants of: B1
# test: one-hybrid fitness for binding NBS DNA (the Noc-binding site; scaled: cognate 1, non-cognate 0); higher = stronger binding
# experimental parameters: with NBS DNA site
In all, about 81,000 sequences were measured (“one-hybrid fitness for binding NBS DNA”: median about -0.1, highest 2% from about 0.36 on). Only a selection was taken, and the highest values are over-represented in it overall.
endpoint label: one-hybrid fitness for binding NBS DNA

Consider the worked cases shown below.
RIGS	0.369
KLGG	≤ 0.2
QMKY	0.516
HRAM	≤ 0.2
YKHS	≤ 0.2
QAVY	≤ 0.2
NFLN	≤ 0.2
SKSN	≤ 0.2
RLGS	0.419
ARKR	0.364

Record one-hybrid fitness for binding NBS DNA per entry; entries follow.
1. KRCM
2. WSLR
3. VSQE
4. VVSE

Reply:
≤ 0.2
≤ 0.2
≤ 0.2
≤ 0.2

Record one-hybrid fitness for binding NBS DNA per entry; entries follow.
1. ARYR
2. RLGP

Reply:
1: ≤ 0.2; 2: ≤ 0.2

Record one-hybrid fitness for binding NBS DNA per entry; entries follow.
1. DFLL
2. QTVY
3. RFYS
4. RSAT
5. SSTW
6. FLTY
7. RIGP
8. LFGC

Reply:
["≤ 0.2", "≤ 0.2", "≤ 0.2", 0.414, "≤ 0.2", "≤ 0.2", "≤ 0.2", "≤ 0.2"]
